src = patent US20250270343A1

Target: T1, soluble human GPNMB (recombinant extracellular domain) (human, UniProt Q14956 23-498)
T1 construct: also called huGPNMB; recombinant human GPNMB extracellular domain; not shown: C-terminal polyhistidine or Avi-His tag
T1 sequence: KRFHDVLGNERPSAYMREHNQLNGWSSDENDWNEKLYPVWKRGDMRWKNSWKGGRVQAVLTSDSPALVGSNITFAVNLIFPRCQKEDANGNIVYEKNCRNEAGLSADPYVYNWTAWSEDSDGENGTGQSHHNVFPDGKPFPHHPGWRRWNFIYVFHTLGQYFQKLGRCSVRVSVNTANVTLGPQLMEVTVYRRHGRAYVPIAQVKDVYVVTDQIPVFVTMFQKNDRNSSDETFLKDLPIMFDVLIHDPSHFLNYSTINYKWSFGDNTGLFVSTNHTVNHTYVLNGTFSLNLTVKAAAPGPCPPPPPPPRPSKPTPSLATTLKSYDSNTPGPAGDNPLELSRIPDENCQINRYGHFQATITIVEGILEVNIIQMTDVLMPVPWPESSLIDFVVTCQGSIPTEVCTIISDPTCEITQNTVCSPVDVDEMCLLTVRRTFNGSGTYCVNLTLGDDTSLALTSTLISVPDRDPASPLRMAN
Experiment: SPR Carterra, Ab immobilized
Observed property: koff (s⁻¹)
Give a bare numeral; the unit s⁻¹ is implied.

Reference set, count: 2
- Binder: "anti-GPNMB antibody GPN-01 (antibody, human IgG1, V domains shown, chimeric) VH: QVQLQQSGAELAKPGASVKLSCKASGYNFTNYCIHWVKQRPGQGLEWIGYINPSTGYTEYNQKFKDKATLTADKSSTTAYMQLSSLTSEDSAVYYCARGRYDEFTYWGQGTLVTVSA VL: DIVLTQSPASLAVSLGQRATISCRASKSVSTSTYSYMHWYQQKPGQPPKLLIYLASNLESGVPARFSGSGSGTDFTLNIHPVEEEDAATYYCQHSRELPPTFGGGTKLEIK"
  Observed property: "koff"
  Val: 0.0038
- Binder: "anti-GPNMB antibody GPN-30 (antibody, human IgG1, V domains shown, chimeric) VH: EVQLQQSGPELVNPGASVRISCKASGYSFTGYYMNWVKQSPEKSLEWIGEINPNTGFTTYNQNFKAKATLTVDKSSSTAYIQLKSLTSEDSAVYYCTRPSPSFDYWGQGTTLTVSS VL: DIQMTQSPSSLSASLGERGSLTCRASQEISGHLSWLQQKPDGTIKRLIYAASTLDSGVPKRFSGSRSGSDYSLTISSLESEDFADYYCLQYASYPYTFGGGTKLEIK"
  Observed property: "koff"
  Val: 0.00012

Next item in the queue.
In: I am curious: what koff value has been reported for anti-GPNMB antibody GPN-65 (antibody, human IgG1, V domains shown, chimeric) VH: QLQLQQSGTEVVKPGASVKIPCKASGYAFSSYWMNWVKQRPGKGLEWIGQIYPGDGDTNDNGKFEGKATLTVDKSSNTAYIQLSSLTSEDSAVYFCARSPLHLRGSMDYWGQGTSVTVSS VL: SIVMTQTPKFLLVSAGDRVTITCKASQSVSNDVAWFQQKPGQSPELLIYSASNRYTGVPDRFTGSGYGTDFTFTISTVQAEDLAVYFCQQNYYSPFTFGGGTRLEIK ?
Out: 0.0001
